# Experiment Summary: self-splicing fitness, log relative to wild type (ln ratio); higher = more splicing; Tetrahymena group I intron in knt gene, E. coli kanamycin selection, DiMSum; sequences stand for … in CUCUCU…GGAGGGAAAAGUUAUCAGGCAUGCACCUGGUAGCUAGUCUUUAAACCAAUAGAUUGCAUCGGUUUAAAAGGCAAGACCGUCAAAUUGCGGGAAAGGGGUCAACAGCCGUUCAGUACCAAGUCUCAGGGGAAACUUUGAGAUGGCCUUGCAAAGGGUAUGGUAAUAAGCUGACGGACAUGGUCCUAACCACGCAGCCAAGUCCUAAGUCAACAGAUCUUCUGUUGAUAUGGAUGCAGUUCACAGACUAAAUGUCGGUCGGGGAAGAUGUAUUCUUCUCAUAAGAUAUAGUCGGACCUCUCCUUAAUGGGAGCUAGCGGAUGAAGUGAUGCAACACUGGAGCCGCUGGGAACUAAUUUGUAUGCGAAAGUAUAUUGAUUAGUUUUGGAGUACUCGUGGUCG;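 note: selection with 25 µg/mL kanamycin versus none on LB agar overnight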
# Run Parameters: 30 °C
Response key: Fulfilled means self-splicing fitness (ln) >= -2; Not fulfilled means self-splicing fitness (ln) < -2.

entry_sequence=AUUUAGCAAUAUUACGAACA class_name=Fulfilled
entry_sequence=CUCAAGCAAUAUUACGGGCG class_name="Not fulfilled"
entry_sequence=CCGAAGCAAUAUUACGGAAG class_name="Not fulfilled"
entry_sequence=GCGUAGCAAUAUUACGAGAU class_name="Not fulfilled"
entry_sequence=GCCGAGCAAUAUUACGAUUA class_name=Fulfilled
entry_sequence=ACUAAGCAAUAUUACGUCCG class_name=Fulfilled
entry_sequence=GGUCAGCAAUAUUACGCUAG class_name="Not fulfilled"
entry_sequence=CGCUAGCAAUAUUACGGCCU class_name=Fulfilled
